- Tested on: HeLa
- experiment.summary: MALAT1 nuclear FISH intensity, robust Z-score vs DMSO; higher = more nuclear MALAT1 lncRNA, active = -3 or less
- test.parameters: 10 µM; 6 h
Counter-ions that a name gives are not always drawn.
Decide by MALAT1 nuclear FISH intensity: equal to or exceeding -0.8 means criterion met, less means criterion not met.

Cc1ccc(Nc2nccc(N(C)c3ccc4c(C)n(C)nc4c3)n2)cc1S(N)(=O)=O | criterion met
CC(C)C(=O)Nc1ccc([N+](=O)[O-])c(C(F)(F)F)c1 [Flutamide] | criterion met

As a next step, examine the compound that follows.
-- ask Hi, just wondering whether OC[C@H]1NC[C@@H](O)[C@@H](O)[C@@H]1O [1-Deoxymannojirimycin hydrochloride] shows MALAT1 nuclear FISH intensity of -0.8 or higher.
-- reply criterion met

====

- System: HeLa
- experiment.summary: MALAT1 nuclear FISH intensity, robust Z-score vs DMSO; higher = more nuclear MALAT1 lncRNA, active = -3 or less
- test.parameters: 10 µM; 6 h
Please answer using one outcome listed in 1 (yes) (active), 0 (no) (inactive)

-- ask Would you mind telling me which call this test gave CN1CCN2c3ncccc3Cc3ccccc3C2C1 (configuration not stated) ?
-- reply 0 (no)

-- ask Tell me the recorded outcome of this test for CCCCCCCCCC(=O)N[C@@H](Cc1c[nH]c2ccccc12)C(=O)N[C@H](CC(N)=O)C(=O)N[C@@H](CC(=O)O)C(=O)N[C@@H]1C(=O)NCC(=O)N[C@@H](CCCN)C(=O)N[C@@H](CC(=O)O)C(=O)N[C@H](C)C(=O)N[C@@H](CC(=O)O)C(=O)NCC(=O)N[C@H](CO)C(=O)N[C@@H]([C@H](C)CC(=O)O)C(=O)N[C@@H](CC(=O)c2ccccc2N)C(=O)O[C@@H]1C .
-- reply 0 (no)

====

- Tested on: HeLa
- experiment.summary: MALAT1 nuclear FISH intensity, robust Z-score vs DMSO; higher = more nuclear MALAT1 lncRNA, active = -3 or less
- test.parameters: 10 µM; 6 h
Where a name gives a salt, the structure may show the parent alone.
experimental.readout: MALAT1 nuclear FISH intensity
Answer with a bare number; do not write a unit.

Past entries and their recorded results:
CC(C)[C@H](NC(=O)OCc1ccccc1)C(=O)N[C@H](C=O)Cc1ccccc1 | -0.153
Oc1ccc(Nc2nc(-c3ccc(Cl)cc3)cs2)cc1 | -1.04
NS(=O)(=O)c1cc(C2(O)NC(=O)c3ccccc32)ccc1Cl (stereo not drawn) | -0.245
CNC(=O)c1cc(Oc2ccc(NC(=O)Nc3ccc(Cl)c(C(F)(F)F)c3)c(F)c2)ccn1 | 0.489
Cc1nccn1CC1CCc2c(c3ccccc3n2C)C1=O (stereo not drawn) | -0.471

-- ask Find the recorded MALAT1 nuclear FISH intensity belonging to COc1ccc2cc1Oc1ccc(cc1)C[C@H]1c3cc(c(OC)cc3CCN1C)Oc1c(OC)c(OC)cc3c1[C@H](C2)N(C)CC3 and report it.
-- reply -0.0671

-- ask Give the measured MALAT1 nuclear FISH intensity of O=C1CN(/N=C/c2ccc(-c3ccc([N+](=O)[O-])cc3)o2)C(=O)N1 [Dantrolene sodium salt] .
-- reply -0.32

-- ask So what's the measured MALAT1 nuclear FISH intensity for this one? Fc1ccc(-n2cc(CCCCN3CCC4(CC3)OCc3ccccc34)c3ccccc32)cc1 [Siramesine fumarate salt]
-- reply -1.76

====

- Test system: HeLa
- experiment.summary: MALAT1 nuclear FISH intensity, robust Z-score vs DMSO; higher = more nuclear MALAT1 lncRNA, active = -3 or less
- test.parameters: 10 µM; 6 h
experimental.readout: MALAT1 nuclear FISH intensity
Answer with a number only.

Record excerpt, results attached:
CC[C@H]1OC(=O)[C@H](C)[C@@H](O[C@H]2C[C@@](C)(OC)[C@@H](O)[C@H](C)O2)[C@H](C)[C@@H](O[C@@H]2O[C@H](C)C[C@H](N(C)C)[C@H]2O)[C@](C)(OC)C[C@@H](C)C(=O)[C@H](C)[C@@H](O)[C@]1(C)O [Clarithromycin] | -0.246
CC(=O)Oc1ccc(C(c2ccc(OC(C)=O)cc2)c2ccccn2)cc1 [Bisacodyl] | -0.416
O=C1Nc2ccc(Cl)cc2[C@@](C#CC2CC2)(C(F)(F)F)O1 [Efavirenz] | 0.436
CCCCCCCCCCCCCCCCCCOC[C@H](COP(=O)([O-])OCC[N+](C)(C)C)OC(C)=O | 0.00179
O=c1[nH]c2cc(C(F)(F)F)ccc2n1-c1cc(C(F)(F)F)ccc1O | 0.418

-- ask Returns the measured MALAT1 nuclear FISH intensity for the input molecule. Input: CCCCCC1OC1C/C=C\C/C=C\C/C=C\CCCC(=O)O (configuration not stated) [14,15-Epoxyeicosa-5Z,8Z,11Z-trienoic acid]
-- reply -0.17

-- ask # MALAT1 nuclear FISH intensity lookup, item COc1ccc2c(c1)CCC1C2CCC2(C)C(NCCCCCCN3C(=O)C=CC3=O)CCC12 (configuration not stated)
-- reply -0.795

====

- System: HeLa
- experiment.summary: MALAT1 nuclear FISH intensity, robust Z-score vs DMSO; higher = more nuclear MALAT1 lncRNA, active = -3 or less
- test.parameters: 10 µM; 6 h
Where a name gives a salt, the structure may show the parent alone.
Binning rule for recorded MALAT1 nuclear FISH intensity: low end (below -0.3), middle (-0.3 to below 0.5), high end (0.5 or more)

See these solved cases before continuing.
NC(=S)NCCC[C@H](N)C(=O)O [Thiocitrulline [L-Thiocitrulline]] | low end
CCCCS(=O)(=O)N[C@@H](Cc1ccc(OCCCCC2CCNCC2)cc1)C(=O)O | high end
CCCCCOC(=O)Nc1nc(=O)n([C@@H]2O[C@H](C)[C@@H](O)[C@H]2O)cc1F | middle
COc1cc2ncnc(Nc3cccc(Cl)c3)c2cc1OC | low end
CSc1ccc2c(c1)N(CCC1CCCCN1C)c1ccccc1S2 (stereo not given) [Thioridazine hydrochloride] | low end

-- ask Class (by measured MALAT1 nuclear FISH intensity) for C[C@H]1C[C@@H]2[C@H]([C@@H](O)C[C@@]3(C)[C@H]2CC[C@]3(O)C(=O)CO)[C@@]2(C)C=CC(=O)C=C12
-- reply high end

-- ask Sort CCOC(=O)[C@H](CCc1ccccc1)N[C@@H](C)C(=O)N1[C@H](C(=O)O)C[C@H]2CCCC[C@@H]21 into one of the categories.
-- reply high end

-- ask Category of CCCCN1C[C@H](O)[C@@H](O)[C@H](O)[C@H]1CO , please.
-- reply low end

-- ask Could you place CCCCC[C@H](O)/C=C/[C@H]1C(=O)C=C[C@@H]1C/C=C\CCCC(=O)O in its proper category? Many thanks.
-- reply low end

-- ask Please report the category associated with CCCCC/C=C\C/C=C\CCCCCCCC(=O)O , nothing else.
-- reply middle

-- ask Category of O=C(O)c1cc(=O)c2c(OCC(O)COc3cccc4oc(C(=O)O)cc(=O)c34)cccc2o1 :
-- reply high end

-- ask Which MALAT1 nuclear FISH intensity category applies to CCN(CC)CCCC(C)Nc1ccnc2cc(Cl)ccc12 (stereo not given) [Chloroquine Diphosphate] here?
-- reply middle

-- ask Exam item: assign CCCCC/C=C\C\C=C/C=C/C=C/[C@@H](SC[C@H](N)C(=O)NCC(=O)O)[C@@H](O)CCCC(=O)O to the correct category.
-- reply high end

====

Recorded nuclear count per well, one value per entry.
- Tested on: HeLa
- experiment.summary: nuclear count per well, robust Z-score vs DMSO; higher = more cells (less toxicity)
- test.parameters: 10 µM; 6 h
Where a name gives a salt, the structure may show the parent alone.
Keep it simple and answer with nothing but the number.

CC[C@H](C)C(=O)O[C@H]1C[C@@H](C)C=C2C=C[C@H](C)[C@H](CC[C@@H]3C[C@@H](O)CC(=O)O3)[C@H]21 [Lovastatin] | -0.328
NCCNCCNCCN [Trientine Dihydrochloride] | -0.593
CO[C@H]1/C=C/O[C@@]2(C)Oc3c(C)c(O)c4c(O)c(c(/C=N/N5CCN(C)CC5)c(O)c4c3C2=O)NC(=O)/C(C)=C\C=C\[C@H](C)[C@H](O)[C@@H](C)[C@@H](O)[C@@H](C)[C@H](OC(C)=O)[C@@H]1C [Rifampicin] | 0.709

-- ask Quick one: nuclear count per well of Fc1ccc([C@@H]2CCNC[C@H]2COc2ccc3c(c2)OCO3)cc1 [Paroxetine hydrochloride hemihydrate] ?
-- reply -0.809

-- ask Would you kindly share the measured nuclear count per well for CCC(NC(=O)C(CC(C)C)NC(=O)OCc1ccccc1)C(=O)C(=O)NCCCN1CCOCC1 (configuration not stated) [Calpain Inhibitor XI] ?
-- reply 0.789

-- ask Using the record for CC1=C(/C=C/C(C)=C/C=C/C(C)=C\C(=O)O)C(C)(C)CCC1 [Isotretinoin] , report its nuclear count per well.
-- reply 0.753

-- ask # get_value(readout='nuclear count per well', item= CNCCC=C1c2ccccc2CCc2ccccc21 )
-- reply 0.249
